Reference source: patent US9839642B2

- Experimental target: VIM-1 (Pseudomonas aeruginosa)
- Test: Enzyme activity: determination of IC50, fluorescence assay with CCF2-FA substrate
- Assay type: biochemical
- Measurement conditions: enzyme 30 pM, CCF2-FA 1.25 μM, 2 hours at 25° C.; read-out: VIM1 IC50
Quick rule for you: IC50 under 0.02 µM gets true (1), anything else gets false (0).

CC(C)C[C@H](C(=O)O)[C@H](Cc1ccc(-c2ccnc(N)c2)cn1)c1nn[nH]n1    false (0)
CC[C@H](C(=O)O)[C@H](Cc1ccccc1)c1nnn[nH]1    false (0)
CC(C)[C@H](C(=O)O)[C@H](Cc1ccc(NCCO)cn1)c1nnn[nH]1    false (0)
CCC[C@H](C(=O)O)[C@H](Cc1ccc(NCCN2CCOCC2)cc1)c1nn[nH]n1    false (0)
COCCC[C@H](C(=O)O)[C@H](Cc1ccccc1)c1nnn[nH]1    false (0)

In: Please indicate whether the reported IC50 of `O=C(O)[C@@H](C1CCOCC1)[C@H](Cc1ccccc1)c1nnn[nH]1` is strictly below 0.02 µM.
Out: false (0)

In: Please indicate whether the reported IC50 of CCC[C@H](C(=O)O)[C@H](Cc1ccc(NC(C)CN)cc1)c1nn[nH]n1 (stereo partly shown) is strictly below 0.02 µM.
Out: true (1)

In: Please indicate whether the reported IC50 of `CC(C)C[C@H](C(=O)O)[C@H](Cc1ccc(C2CCNCC2)cc1)c1nnn[nH]1` is strictly below 0.02 µM.
Out: true (1)

In: Please indicate whether the reported IC50 of `CCC[C@H](C(=O)O)[C@H](Cc1cccc(C#N)c1)c1nn[nH]n1` is strictly below 0.02 µM.
Out: true (1)

In: Please indicate whether the reported IC50 of `CCC[C@H](C(=O)O)[C@H](Cc1ccc(-c2ccc(N)nc2)cc1)c1nn[nH]n1` is strictly below 0.02 µM.
Out: true (1)

In: Please indicate whether the reported IC50 of `CC(C)[C@H](C(=O)O)[C@H](Cc1ccc(N2CCC[C@@H]2CO)nc1)c1nnn[nH]1` is strictly below 0.02 µM.
Out: false (0)

In: Please indicate whether the reported IC50 of `CCC[C@H](C(=O)O)[C@H](Cc1ccc(N2CCN(CCO)CC2)cc1)c1nn[nH]n1` is strictly below 0.02 µM.
Out: false (0)

In: Please indicate whether the reported IC50 of `CCC[C@H](C(=O)O)[C@H](Cc1ccccc1)c1nnn[nH]1` is strictly below 0.02 µM.
Out: true (1)

In: Please indicate whether the reported IC50 of `CCC[C@H](C(=O)O)[C@H](Cc1csc(N)n1)c1nnn[nH]1` is strictly below 0.02 µM.
Out: false (0)

In: Please indicate whether the reported IC50 of `CC(C)C[C@H](C(=O)O)[C@H](Cc1ccc(Br)c(F)c1)c1nnn[nH]1` is strictly below 0.02 µM.
Out: true (1)

In: Please indicate whether the reported IC50 of `CC(C)C[C@H](C(=O)O)[C@H](Cc1ccc(C2=CCNC2)nc1)c1nn[nH]n1` is strictly below 0.02 µM.
Out: true (1)

---

Would you mind telling me the reported VIM1 KP599644 MITC95 of each entry?
- Test system: Klebsiella pneumoniae expressing VIM-1 (IHMA599644)
- Test: Antibiotic potentiation activity: synergistic concentration (MITC95) with imipenem, growth by OD600
- Type: cell-based
- Measurement conditions: 95% inhibition of bacterial growth, strain IHMA599644
Answers are plain numbers, in µM.

CC(C)[C@H](C(=O)O)[C@H](Cc1cccc(NCCO)n1)c1nnn[nH]1 [Example 138]    75
CCC[C@H](C(=O)O)[C@H](Cc1ccc(NC(C)CN(C)C)cc1)c1nn[nH]n1 (some centres unmarked) [Example 224]    50
O=C(O)[C@@H](CCCCO)[C@H](Cc1ccccc1)c1nnn[nH]1 [Example 32]    200
CCC[C@H](C(=O)O)[C@H](Cc1ccncc1)c1nnn[nH]1 [Example 88]    6.2

Give me VIM1 KP599644 MITC95 for each of these molecules, listed below.
1. CC(C)[C@H](C(=O)O)[C@H](Cc1ccc(N2CCC[C@H]2CO)nc1)c1nnn[nH]1 [Example 126]
2. CCC[C@H](C(=O)O)[C@H](Cc1ccc(N2CCN3CCCC3C2)cc1)c1nn[nH]n1 (some centres unmarked) [Example 232]

Out:
1. 50
2. 50
